Literature compilation of pIC50 measurements on 11-beta-hydroxysteroid dehydrogenase 1 (Mus musculus, UniProt P50172).
Sequence (P50172 whole entry): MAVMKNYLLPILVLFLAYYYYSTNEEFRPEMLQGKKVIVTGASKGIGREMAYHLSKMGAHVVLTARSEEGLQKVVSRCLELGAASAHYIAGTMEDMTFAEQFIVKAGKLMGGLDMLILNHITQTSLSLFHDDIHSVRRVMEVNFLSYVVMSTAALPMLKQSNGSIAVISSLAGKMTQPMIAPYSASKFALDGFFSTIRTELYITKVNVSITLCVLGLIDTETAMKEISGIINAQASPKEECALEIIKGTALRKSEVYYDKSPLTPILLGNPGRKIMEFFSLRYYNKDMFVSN
pIC50: −log10 of the molar value.
MEASURED_ATTRIBUTE: pIC50

>>> numeric_value("FC1(F)CC(c2ccc(Cl)cc2)(c2nnc(C3CC3)n2C2CC2)C1")
6.97
>>> numeric_value("CC(C)(C(=O)N[C@H]1C2CCCC1C[C@@H](C(=O)O)C2)N1CCN(c2ccc(C(F)(F)F)cn2)CC1")
5.94
>>> numeric_value("O=C(CSc1nc2ccc(NC(=O)c3ccccc3Br)cc2s1)NCCc1ccccc1")
5.68
>>> numeric_value("O=S1(=O)N=C(N[C@@H](CCCO)c2ccccc2)O[C@H]2CCCC[C@H]21")
6.53
>>> numeric_value("CC1(C)C(=O)N([C@H]2C3CC4CC2C[C@](C(=N)N)(C4)C3)CC1COc1ccc(C(F)(F)F)cn1 (stereo partly drawn)")
6.96

(a) Cn1c(-c2ccc(OC3CC3)cc2)nnc1C1(c2ccc(Cl)cc2)CCC1
(b) CC(C)(Oc1ccc(Cl)cc1)C(=O)N[C@H]1C2C[C@@H]3C[C@H]1C[C@@](c1ncc[nH]1)(C2)C3
Which entry has a larger number for pIC50, a or b ? Give the chosen item's label as your response. a
(a: 8.66, b: 7.96)
